- TEST METHOD NOTES: Quantitative High-Throughput drug screen in 47 multiple myeloma cell lines against the NCATS MIPE library collection: FR4_PLB cell viability assay (AID 1918924; note: nearly all actives have a fitted effect of over 35% in size)
- CONDITIONS: FR4_PLB myeloma cells viability, CellTiter-Glo ATP, 48 h; series mostly up to 45.8 µM
Results filed as inconclusive are left out. Calls of active or inactive are those of the source. Calls come from the whole dose curve; as a rule, active = well fitted cell-killing curve with a large enough effect; inconclusive = small, poorly fitted or top-dose-only effect, or effect the other way; inactive = no such curve, though single readings can be large or run the other way.
Labels: active, inactive

* O=c1cc(-c2ccc(O)cc2)oc2cc(O)cc(O)c12 | active
* C[C@]12CC[C@@H]3c4ccc(O)cc4CC[C@H]3[C@H]1C[C@@H](O)[C@H]2O | inactive
* COc1cc2ncnc(-n3nc(-c4ccccn4)nc3N)c2cc1OC | active
* O=c1cc(-c2ccccc2)oc2cc(O)cc(O)c12 | inactive
* CC(C)OC(=O)CCCC=CC[C@@H]1[C@H](C=C[C@@H](O)COc2cccc(C(F)(F)F)c2)[C@H](O)C[C@@H]1O | active
* O=C1NC(=O)C(=Cc2cccc(C(F)(F)F)c2)S1 | inactive
* CC(=Cc1ccccc1)C=C1SC(=S)N(CC(=O)O)C1=O | inactive
* O=C(Nc1ccccc1-c1cn2c(CN3CCNCC3)csc2n1)c1cnc2ccccc2n1 | active
* CCNc1cc(NC2CCC(O)CC2)nc(Nc2ccc3c(ccn3Cc3ccccc3)c2)n1 (centres undefined) | active
* COc1cc2c(cc1OC)CN(CCc1ccc(NC(=O)c3cc(OC)c(OC)cc3NC(=O)c3cnc4ccccc4c3)cc1)CC2 | inactive
* Cc1cccc(Nc2nc(-c3ccncc3)cs2)c1 | active
* CCc1ccc(OCc2ccccc2C(=O)Nc2ccc3nc(C)cc(N)c3c2)cc1 | active
* O=C(O)c1ccccc1C(=O)Nc1ccc(-c2ccccc2)cc1 | inactive
* NS(=O)(=O)c1cccc2c1C(=O)c1cccc(O)c1C2=O | active
